# System: DLD-1
# measurement description: NCI tumour cell line growth inhibition, 48 h
Active and inactive are the calls of the source. Cut-off read from the data, not from the text of the source: active = GI50 up to about 1.1 µM and inactive = higher.
Outcome (select one): label 1 for active, label 0 for inactive

[in] GET /call?item= CC1OC(OC2C[C@](O)(C(=O)CF)Cc3c(O)c4c(c(O)c32)C(=O)c2ccccc2C4=O)CC(N)C1O (some centres undefined) returns the recorded outcome of this test.
[out] label 1

[in] Follow-up entry: "Nn1c(CCCl)nc2c(Br)cc(Br)cc2c1=O"
[out] label 0

***
[in] Test call for this compound, please: "COc1ccc(/C=N/NC(=O)c2sc(=S)n(-c3ccccc3)c2N)cc1"
[out] label 0

[in] Then this compound: Cc1c(Cl)ccc2c1NC(=O)C2(O)CC(=O)c1ccc2ccccc2c1 (centres undefined)
[out] label 0

[in] Can you check COc1cccc2c1C(=O)c1c(O)c3c(c(O)c1C2=O)C[C@@](O)(C(=O)CO)CC3OC1CC(NCCCC(OC(C)=O)OC(C)=O)C(O)C(C)O1 (some centres undefined) next?
[out] label 1

[in] Next record, please: CCOP(=O)(OCC)C(C(=O)OC)C(=O)C(=O)Nc1cccc([N+](=O)[O-])c1 (centres undefined)
[out] label 0

[in] For "Cc1ccc([N+](=O)[O-])cc1NC(=O)C(=O)Cc1nc2ccc(C(=O)c3ccccc3)cc2nc1O" then?
[out] label 0

[in] // query: "O=Cc1cc2c(cc1-c1cc3c(cc1C=O)OCO3)OCO2"
[out] label 0

[in] Thanks! And "CN(C(=O)c1ccc(Cl)cc1)C(=S)N1CCN(c2ccccn2)CC1" ?
[out] label 0

---

# Test system: SNB-75
# measurement description: NCI tumour cell line growth inhibition, 48 h
Activity calls are given as the source filed them. Cut-off read from the data, not from the text of the source: active = GI50 up to about 1.1 µM and inactive = higher.
value type: GI50

Consider the reported GI50 for these compounds:
[in] Can you look up the measured GI50 of "CC(C)=C/C=C1/CS(=O)(=O)C=C1C" for me?
[out] > 100 µM (inactive)

[in] Same thing, different compound: "c1ccc(-c2c(-c3cccs3)[nH]c(-c3cccs3)c2-c2ccccn2)nc1"
[out] 17.6 µM (inactive)

[in] Try "CN(C(=O)c1ccc(Cl)cc1)C(=S)N1CCN(c2ccccn2)CC1" next.
[out] > 100 µM (inactive)

Next:
[in] // lookup GI50 for COC(=O)C1(NC(=O)C(Cc2ccccc2)N(C(=O)OC(C)(C)C)C(=O)OC(C)(C)C)CCCC1 (stereo not given)
[out] > 100 µM (inactive)

[in] Same again, this time with Cc1cc(Br)cc(C)c1NC(=O)C(=O)C1C(=O)C(CC2C(=O)c3ccccc3C2=O)C(=O)CC1(C)C (stereo not given)
[out] > 100 µM (inactive)

---

# Tested on: HOP-62
# measurement description: NCI tumour cell line growth inhibition, 48 h
Active and inactive are the calls of the source. Rule as the data show it: active = GI50 up to about 1.1 µM and inactive = higher.
// allowed return values: active, inactive

Examples from the recorded data:
[in] Just curious, what result did "CCc1n[nH]c(=O)n1N" get here?
[out] inactive

[in] Next entry: COc1cccc2c1C(=O)c1c(O)c3c(c(O)c1C2=O)C[C@@](O)(C(=O)CO)CC3OC1CC(NCCCC(OC(C)=O)OC(C)=O)C(O)C(C)O1 (stereo not given in full)
[out] active

New cases:
[in] Test call for this compound, please: "COc1cc(/C=C2/C[C@H]3[C@@H]4CCC5=CC(=O)CC[C@]5(C)[C@H]4CC[C@]3(C)NC2=O)cc(OC)c1OC"
[out] inactive

[in] Same read-out for "COC(CN(C=O)[C@@H](c1ccc(Cl)cc1)c1cc2ccccc2o1)OC" ?
[out] inactive

[in] Same for CNC1C(OC2C(OC3C(O)C(O)C(O)C(O)C3O)OC(C)C2(O)CO)OC(CO)C(O)C1O.N=C(N)N.NC(=O)O (stereo not given)
[out] inactive

---

# System: SW-620
# measurement description: NCI tumour cell line growth inhibition, 48 h
The source made the active and inactive calls. No stated cut-off is given here; in the data, active = GI50 up to about 1.1 µM and inactive = higher.
value type: GI50

[in] Query: GI50; subject: "c1ccc2c(c1)N[C@@H]1c3[nH]c4ccccc4c3CC[C@H]21"
[out] 17.7 µM (inactive)

[in] What do you have for COc1ccc(C(c2ccccc2)(c2ccc(OC)cc2)N2C(=O)NC3C(CCCCC(=O)NCCCCCCOP(OCCC#N)N(C(C)C)C(C)C)SCC32)cc1 (stereo not drawn) ?
[out] 19.8 µM (inactive)

[in] Quick one: CC1OC(OC2C(OC(=O)[C@]34CCC(C)(C)C[C@H]3C3=CC[C@@H]5[C@@]6(C)CC[C@H](OC7OC(CO)C(O)C(O)C7OC7OC(CO)C(O)C(O)C7O)C(C)(C)[C@@H]6CC[C@@]5(C)[C@]3(C)CC4)OCC(O)C2O)C(O)C(OC2OCC(O)C(O)C2O)C1OC1OCC(O)C(OC2OCC(O)C(O)C2O)C1O (stereo partly drawn)
[out] 15.7 µM (inactive)

[in] Cool, now "CCC/C(Cl)=N/OC(=O)Nc1cc(C(F)(F)F)ccc1OC"
[out] 3.55 µM (inactive)

[in] COC(=O)C(=O)C(C(=O)C(=O)Nc1ccc([N+](=O)[O-])cc1[N+](=O)[O-])c1nc2ccc([N+](=O)[O-])cc2nc1O (stereo not drawn) , same question.
[out] > 100 µM (inactive)

Continuing:
[in] Requested field: GI50. Item: "O=C(O)C1SCCS1"
[out] > 100 µM (inactive)

[in] Another compound to look at: "CN(C(=O)c1ccc(Cl)cc1)C(=S)N1CCN(c2ccccn2)CC1"
[out] > 100 µM (inactive)

[in] Okay, and "[N-]=[N+]=N/C1=C/CCCCC(=O)C1" ?
[out] > 100 µM (inactive)

---

# Tested on: NCI-H522
# measurement description: NCI tumour cell line growth inhibition, 48 h
Active and inactive are the calls of the source. Cut-off read from the data, not from the text of the source: active = GI50 up to about 1.1 µM and inactive = higher.
Use one of these outcomes when replying: Yes = active, No = inactive

[in] Each molecule tested received a call. Report the one for "COC(=O)/C=C(C)/C=C/c1c(C)c(C(C)=O)c(C)n1C" .
[out] No

[in] Also "Nc1nc(Cl)cc(NCCO)n1" , if possible.
[out] No

[in] Same thing, different molecule: "CCN(CCCl)c1cc(CN(C)C)cc(NC(=O)c2ccc(C(=O)Nc3cccc(CN(C)C)c3)cc2)c1"
[out] Yes

[in] Then what about the molecule "CCC(=O)COc1ccc(NC(NC(=O)C(C(F)(F)F)C(F)(F)F)(C(F)(F)F)C(F)(F)F)cc1" ?
[out] No

[in] What do you get for "O=C(O)CCc1nc2c(n1Cc1ccccc1)C(=O)c1ccccc1C2=O" ?
[out] No

---
[in] Test call, this molecule: "N#Cc1sc2c(c1O)c(=O)n(-c1ccccc1)c(=S)n2-c1ccccc1"
[out] No

[in] Query COc1cc(C(c2cc(OC)c(OC)c(OC)c2)N2C(=O)CCC2C(=O)O)cc(OC)c1OC (stereo unspecified) next
[out] No

[in] Item: "C[C@H](CCC(=O)O)[C@H]1CC[C@H]2[C@@H]3[C@@H](O)C[C@@H]4C[C@H](O)CC[C@]4(C)[C@H]3C[C@H](O)[C@]12C"
[out] No

[in] Continue with O=C(c1ccccc1)C(c1ccccc1)C1(O)C(=O)Nc2ccc([N+](=O)[O-])cc21 (stereo unspecified)
[out] No

---

# Test system: MCF7
# measurement description: NCI tumour cell line growth inhibition, 48 h
Activity calls are given as the source filed them. Cut-off read from the data, not from the text of the source: active = GI50 up to about 1.1 µM and inactive = higher.
value type: GI50

Known results for compounds:
[in] Please give the measured GI50 for this compound: Cc1cccc(C(C)(C)C)c1NC(=O)C(C#N)C1=C(Cl)C(=O)c2ccccc2C1=O (stereo not given)
[out] 15.8 µM (inactive)

[in] Queued: "COc1ccc2[nH]c3c(C)c4c(c(C)c3c2c1)CN(C)C=C4"
[out] 4.53 µM (inactive)

***
[in] Requested read-out: GI50. Entry: Cc1cc2c(c3oc(C4(C)OC4C4OC4C)cc(=O)c13)C(=O)c1c(O)c(C3CC(C)(N(C)C)C(O)C(C)O3)cc(C3CC(N(C)C)C(O)C(C)O3)c1C2=O (stereo not given)
[out] 2.49e-05 µM (active)

[in] Please answer likewise for "O=C(NNC(=S)Nc1ccc(Cl)cc1)c1cc(-c2ccccc2)nc2ccccc12"
[out] 4.01 µM (inactive)

[in] Please do the same for "Clc1ccc2ns[s+]c2c1" as well.
[out] 3.33 µM (inactive)

[in] # iterate: "Cc1cc(SCC(=O)c2ccccc2)nc2ccccc12"
[out] > 100 µM (inactive)

[in] And what about the compound "O=[N+]([O-])c1ccc(Cl)cc1N/N=C/c1cccs1" ?
[out] 9.95 µM (inactive)

[in] Quick one: COc1cc(C2c3cc4c(cc3OC(C)(O)C2C)OCO4)cc(OC)c1OC (stereo not given)
[out] 0.375 µM (active)

[in] Queued: Nc1ncnc2c(C3OC(CO)C(O)C3O)n[nH]c12 (stereo not given)
[out] 0.0698 µM (active)

[in] Record: "CCCCCCCCCc1cc(O)c(O)cc1CCCCCCCCC"
[out] > 10 µM (inactive)

[in] Same read-out for NC(=S)N/N=C1\CCCCC1C(O)(C(F)(F)Cl)C(F)(F)Cl (stereo not given) ?
[out] > 10 µM (inactive)

[in] Another compound to check: "c1ccc(-c2c(-c3cccs3)[nH]c(-c3cccs3)c2-c2ccccn2)nc1"
[out] > 10 µM (inactive)
